TARGET_ENTITY: Potassium-transporting ATPase (Sus scrofa)
Sequence (P18434 whole entry): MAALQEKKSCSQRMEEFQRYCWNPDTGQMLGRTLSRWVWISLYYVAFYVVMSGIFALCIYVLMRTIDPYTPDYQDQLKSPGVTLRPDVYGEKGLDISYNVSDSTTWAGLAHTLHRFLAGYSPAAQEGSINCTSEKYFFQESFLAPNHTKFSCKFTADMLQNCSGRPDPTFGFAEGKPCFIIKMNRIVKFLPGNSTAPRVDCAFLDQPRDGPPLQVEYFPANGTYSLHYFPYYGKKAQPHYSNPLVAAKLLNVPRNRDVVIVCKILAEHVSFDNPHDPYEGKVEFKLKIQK
Sequence (P19156 whole entry): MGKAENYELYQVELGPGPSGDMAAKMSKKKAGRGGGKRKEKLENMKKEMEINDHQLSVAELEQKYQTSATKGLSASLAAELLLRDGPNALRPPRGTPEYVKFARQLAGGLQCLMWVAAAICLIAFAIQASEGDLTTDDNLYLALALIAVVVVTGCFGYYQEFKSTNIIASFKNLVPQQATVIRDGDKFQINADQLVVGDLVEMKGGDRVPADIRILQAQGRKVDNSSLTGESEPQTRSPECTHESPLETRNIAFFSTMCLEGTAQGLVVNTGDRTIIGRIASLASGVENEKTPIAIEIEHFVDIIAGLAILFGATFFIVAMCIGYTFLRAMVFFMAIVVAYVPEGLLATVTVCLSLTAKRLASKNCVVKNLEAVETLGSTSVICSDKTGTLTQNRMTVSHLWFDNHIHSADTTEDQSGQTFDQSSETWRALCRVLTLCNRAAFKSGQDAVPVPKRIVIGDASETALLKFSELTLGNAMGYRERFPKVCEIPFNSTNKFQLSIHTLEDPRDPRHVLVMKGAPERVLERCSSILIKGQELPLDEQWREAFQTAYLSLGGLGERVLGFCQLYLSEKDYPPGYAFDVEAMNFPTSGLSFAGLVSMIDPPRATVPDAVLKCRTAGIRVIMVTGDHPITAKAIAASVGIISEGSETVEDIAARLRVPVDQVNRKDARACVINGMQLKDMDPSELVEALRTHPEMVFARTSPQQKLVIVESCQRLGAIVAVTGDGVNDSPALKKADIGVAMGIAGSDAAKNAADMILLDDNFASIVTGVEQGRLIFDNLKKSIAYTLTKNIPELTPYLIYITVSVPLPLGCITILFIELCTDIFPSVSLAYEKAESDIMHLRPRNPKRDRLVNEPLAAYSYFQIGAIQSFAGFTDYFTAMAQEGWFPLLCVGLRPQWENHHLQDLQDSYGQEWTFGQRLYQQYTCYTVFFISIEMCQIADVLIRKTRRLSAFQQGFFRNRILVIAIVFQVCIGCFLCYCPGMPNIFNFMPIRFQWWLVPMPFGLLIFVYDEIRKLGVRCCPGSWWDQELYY
MEASUREMENT_PROTOCOL: Inhibition of K+ stimulated gastric ATPase activity
pIC50: −log10 of the molar value.
ASSAY_METRIC: pIC50

# annotated cases, reported pIC50 shown
ENTRY_SMILES	pIC50
Cc1ccccc1Nc1nc(NCCO)nc2ccccc12	5.34
COc1cccc2c(N(C)c3ccccc3)nc(N(C)c3ccccc3)nc12	7.13
Cc1cc(F)ccc1Nc1nc(N(C)c2ccccc2)c2ccsc2n1	6.89
COc1cccc2c(Nc3ccccc3C)ncnc12	4.94

[I] Cc1cc(O)ccc1Nc1nc(N(C)c2ccccc2)c2ccccc2n1
[II] Cc1ccccc1Nc1nc(N(C)c2ccccc2)c2cc(O)ccc2n1
input: For this pair, I and II , which shows a numerically higher pIC50? Give the chosen item's label as your response.
output: II
(II: 7.62, I: 5.97)
